- System: OVCAR-5 complex spheroid (HUVEC/MSC), viability % T/C
- EXPERIMENT_DESCRIPTION: Anticancer human tumor OVCAR-5 cell line growth inhibition [Asc];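 note: spheroids exposed to agents for 7 days before readout; 100% = DMSO vehicle-treated wells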
- MEASUREMENT_SETUP: second compound 0.316 µM; first compound 3 µM; active compounds read low
EXPERIMENTAL_ENDPOINT: viability, T/C (%)
Answers are plain numbers, in %.

Recorded results for 3 compounds are shown here.
INSERT INTO measurements (compound, experimental_endpoint, reported_measurement) VALUES
  ('CCN1C(C(=O)NC23CCC(C(=O)O)(CC2)CC3)C(c2cccc(Cl)c2F)C2(C(=O)Nc3cc(Cl)ccc32)C12CCCCC2 (centres undefined) + CNC(C)C(=O)NC1CN(S(=O)(=O)c2cccc(S(=O)(=O)N3CCC4CCC(C(=O)NC(c5ccccc5)c5ccccc5)N4C(=O)C(NC(=O)C(C)NC)C3)c2)CCC2CCC(C(=O)NC(c3ccccc3)c3ccccc3)N2C1=O', 'viability, T/C', 89.6),
  ('Cc1nc(N2CCC3(CC2)COC(C)C3N)c(CO)nc1Sc1ccnc(N)c1Cl (centres undefined) + CNC(C)C(=O)NC1CN(S(=O)(=O)c2cccc(S(=O)(=O)N3CCC4CCC(C(=O)NC(c5ccccc5)c5ccccc5)N4C(=O)C(NC(=O)C(C)NC)C3)c2)CCC2CCC(C(=O)NC(c3ccccc3)c3ccccc3)N2C1=O', 'viability, T/C', 55.2),
  ('CCN1C(C(=O)NC23CCC(C(=O)O)(CC2)CC3)C(c2cccc(Cl)c2F)C2(C(=O)Nc3cc(Cl)ccc32)C12CCCCC2 (centres undefined) + Cc1c(S(C)(=O)=O)c(-c2cc(F)cc(N3CCN(c4ccc(NS(=O)(=O)c5ccc(NC(CCN6CCC(C(=O)OCCCP(=O)(O)O)CC6)CSc6ccccc6)c(S(=O)(=O)C(F)(F)F)c5)cc4)CC3)c2)c(-c2ccc(Cl)cc2)n1C(C)C', 'viability, T/C', 83.3);

Moving on to another compound below.
Briefly, viability, T/C measured for Cc1nc(N2CCC3(CC2)COC(C)C3N)c(CO)nc1Sc1ccnc(N)c1Cl (centres undefined) + Cc1c(S(C)(=O)=O)c(-c2cc(F)cc(N3CCN(c4ccc(NS(=O)(=O)c5ccc(NC(CCN6CCC(C(=O)OCCCP(=O)(O)O)CC6)CSc6ccccc6)c(S(=O)(=O)C(F)(F)F)c5)cc4)CC3)c2)c(-c2ccc(Cl)cc2)n1C(C)C : 42.9

---

I'd appreciate it if you could supply viability, T/C values for the items below.
- System: OVCAR-5 complex spheroid (HUVEC/MSC), viability % T/C
- EXPERIMENT_DESCRIPTION: Anticancer human tumor OVCAR-5 cell line growth inhibition [Asc];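 note: spheroids exposed to agents for 7 days before readout; 100% = DMSO vehicle-treated wells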
- MEASUREMENT_SETUP: second compound 3 µM; first compound 1 µM; active compounds read low

Record excerpt, results attached:
INSERT INTO measurements (compound, reported_measurement) VALUES
  ('C#Cc1c(F)ccc2cc(O)cc(-c3ncc4c(N5CC6CCC(C5)N6)nc(OCC56CCCN5CC(F)C6)nc4c3F)c12 (stereo not drawn) + CCN1C(C(=O)NC23CCC(C(=O)O)(CC2)CC3)C(c2cccc(Cl)c2F)C2(C(=O)Nc3cc(Cl)ccc32)C12CCCCC2', '79.5%'),
  ('CNC(C)C(=O)NC1CN(S(=O)(=O)c2cccc(S(=O)(=O)N3CCC4CCC(C(=O)NC(c5ccccc5)c5ccccc5)N4C(=O)C(NC(=O)C(C)NC)C3)c2)CCC2CCC(C(=O)NC(c3ccccc3)c3ccccc3)N2C1=O (stereo not drawn) + CCN1C(C(=O)NC23CCC(C(=O)O)(CC2)CC3)C(c2cccc(Cl)c2F)C2(C(=O)Nc3cc(Cl)ccc32)C12CCCCC2', '90.8%');

Next compound, viability, T/C to be filled in.
Item: C=C(F)C(=O)N1CCN(c2nc(OCC3CCCN3C)nc3c2CCN(c2cccc4cccc(Cl)c24)C3)CC1CC#N (stereo not drawn) + CCN1C(C(=O)NC23CCC(C(=O)O)(CC2)CC3)C(c2cccc(Cl)c2F)C2(C(=O)Nc3cc(Cl)ccc32)C12CCCCC2 | viability, T/C: 61.8%

Reference source: PubChem BioAssay AID1963436
